# Target System: hMT1 (Homo sapiens, UniProt P48039)
# Sequence (P48039 whole entry): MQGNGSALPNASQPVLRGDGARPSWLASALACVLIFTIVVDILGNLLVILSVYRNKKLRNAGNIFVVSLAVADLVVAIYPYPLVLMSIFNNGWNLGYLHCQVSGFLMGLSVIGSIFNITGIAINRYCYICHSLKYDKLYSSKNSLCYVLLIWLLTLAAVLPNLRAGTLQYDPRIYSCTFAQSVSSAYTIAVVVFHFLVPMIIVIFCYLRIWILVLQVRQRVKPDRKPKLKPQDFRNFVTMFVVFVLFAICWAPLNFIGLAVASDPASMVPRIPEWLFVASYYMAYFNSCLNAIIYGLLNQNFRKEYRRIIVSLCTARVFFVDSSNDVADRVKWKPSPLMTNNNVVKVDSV
# Measurement Description: cAMP assay (GloSensor), isoproterenol-stimulated cAMP in HEK cells
# Type: cell-based
# Set-up: expressed in transfected cells; host or cells: HEK-T (HEK-293 T) cells, co-transfected with GloSensor DNA
# Condition Notes: Table 1; agonist
Each entry below carries its recorded MT1 pEC50.
Write the value as a bare number.

COC(=O)c1sc(N(C)Cc2ccc(Cl)nc2)nc1Cl yielded MT1 pEC50 of 7.80

COc1cccc2c1CCN(C(=O)c1ccc(F)nc1)C2 yielded MT1 pEC50 of 5.30

COCCN(Cc1ccc2c(c1)OCO2)c1nc(C(F)(F)F)ns1 yielded MT1 pEC50 of 5.70
